Let's look at some molecules and their measured pIC50.
Biological target: KRAS^G12C::SOS1 (Homo sapiens, UniProt Q07889)
Sequence (Q07889 1-1333): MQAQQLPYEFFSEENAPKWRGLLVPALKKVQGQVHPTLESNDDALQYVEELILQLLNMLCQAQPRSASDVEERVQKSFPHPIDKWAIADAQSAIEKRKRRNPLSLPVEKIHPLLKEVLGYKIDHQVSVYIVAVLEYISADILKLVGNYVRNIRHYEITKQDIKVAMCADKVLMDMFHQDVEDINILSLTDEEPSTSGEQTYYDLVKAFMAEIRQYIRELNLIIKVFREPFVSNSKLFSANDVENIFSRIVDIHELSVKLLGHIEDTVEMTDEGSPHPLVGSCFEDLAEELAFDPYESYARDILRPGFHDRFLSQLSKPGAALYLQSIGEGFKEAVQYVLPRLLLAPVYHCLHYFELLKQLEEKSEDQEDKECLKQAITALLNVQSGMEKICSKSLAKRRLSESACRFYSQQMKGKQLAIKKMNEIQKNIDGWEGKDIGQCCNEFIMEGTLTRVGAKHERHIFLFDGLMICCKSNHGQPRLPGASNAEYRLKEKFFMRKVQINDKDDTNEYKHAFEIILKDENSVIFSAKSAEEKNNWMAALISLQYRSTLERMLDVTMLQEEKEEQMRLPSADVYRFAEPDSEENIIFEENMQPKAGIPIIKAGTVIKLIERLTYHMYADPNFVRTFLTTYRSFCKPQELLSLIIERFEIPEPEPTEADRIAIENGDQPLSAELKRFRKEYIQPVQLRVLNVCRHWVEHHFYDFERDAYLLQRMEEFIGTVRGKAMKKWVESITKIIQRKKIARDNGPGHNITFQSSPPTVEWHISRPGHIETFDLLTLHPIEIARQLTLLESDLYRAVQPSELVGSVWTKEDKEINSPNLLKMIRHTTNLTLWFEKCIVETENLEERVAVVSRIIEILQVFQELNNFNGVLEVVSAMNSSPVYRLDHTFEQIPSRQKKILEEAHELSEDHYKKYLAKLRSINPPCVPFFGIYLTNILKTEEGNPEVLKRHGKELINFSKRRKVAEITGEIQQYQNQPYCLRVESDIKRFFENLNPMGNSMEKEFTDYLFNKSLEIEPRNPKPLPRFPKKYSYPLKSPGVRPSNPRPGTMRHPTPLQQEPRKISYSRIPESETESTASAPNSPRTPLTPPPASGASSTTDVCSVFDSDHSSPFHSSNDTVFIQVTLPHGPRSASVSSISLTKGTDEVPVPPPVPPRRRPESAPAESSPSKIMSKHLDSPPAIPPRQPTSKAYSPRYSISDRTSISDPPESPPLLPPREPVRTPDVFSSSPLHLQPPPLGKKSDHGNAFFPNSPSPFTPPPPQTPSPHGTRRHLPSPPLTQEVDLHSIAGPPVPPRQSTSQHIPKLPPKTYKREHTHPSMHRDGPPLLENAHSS
Experiment: KRAS G12C::SOS1 protein-protein interaction (PPI) inhibition assay (HTRF binding kit)
pIC50: −log10 of the molar value.

Some molecules with recorded pIC50:
| molecule | observed |
| --- | --- |
| C[C@H](O)c1cccc(-n2nc(C(=O)N[C@H](C)c3cc(N)cc(C(F)(F)F)c3)ccc2=O)c1 [Example 174] | > 6.00 |
| C[C@@H](NC(=O)c1ccc(=O)n(-c2ccccc2F)n1)c1cccc(-n2ccc(=O)cc2)c1 [Example 304] | < 5.00 |
| C[C@@H](NC(=O)c1ccc(=O)n(-c2ccccc2F)n1)c1ccc(-c2ccccc2CO)s1 [Example 299] | 5.00 to 6.00 |

Now for a further molecule.
Request: Consider the molecule shown here: CNCc1ccc(Cl)cc1-c1ccc([C@@H](C)NC(=O)c2ccc(=O)n(-c3cccnc3F)c2)s1 [Example 277] What is its recorded pIC50?
Result: > 6.00
